// provenance: patent US20220112288A1

systemName: T1, Rhesus macaque CD4-HIS (Acro Biosystems, Cat. CD4-C52H7) (rhesus macaque, UniProt P16003 26-390)
T1 construct: Bought reagent; also called Rhesus CD4; rhesus CD4-HIS; not shown: His tag
T1 sequence (P16003 26-390 limits assumed): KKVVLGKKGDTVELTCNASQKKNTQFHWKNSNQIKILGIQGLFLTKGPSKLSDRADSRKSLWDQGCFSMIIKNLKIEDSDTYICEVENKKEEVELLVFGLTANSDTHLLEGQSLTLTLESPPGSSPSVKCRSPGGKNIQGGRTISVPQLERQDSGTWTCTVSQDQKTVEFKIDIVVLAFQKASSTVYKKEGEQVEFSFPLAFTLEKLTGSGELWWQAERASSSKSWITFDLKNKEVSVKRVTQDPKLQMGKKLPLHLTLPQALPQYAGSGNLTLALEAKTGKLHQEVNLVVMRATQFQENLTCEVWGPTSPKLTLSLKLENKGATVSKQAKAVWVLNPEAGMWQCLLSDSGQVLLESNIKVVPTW
assayText: BLI (Octet Red384); Ab on anti-mouse Fc (AMC) sensor; rhesus CD4-HIS 100/50/25 nM; global 1:1 fit;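 further: antibodies loaded at 10 µg/mL, an unrelated mouse-derived antibody served as internal reference, curves fit over association and dissociation phases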
valueType: pKd
Give bare numbers, as −log10 of the molar value.

Observe how each entry below is paired with its result.
binder	measuredResult
75110_08M20A (antibody, V domains shown, Tested as antibody purified from AlivaMab Mouse hybridoma supernatant (human variable domains, kappa; mouse Fc, captured on anti-mouse IgG Fc sensors); also called ADS75110 purified AMM Ab) VH: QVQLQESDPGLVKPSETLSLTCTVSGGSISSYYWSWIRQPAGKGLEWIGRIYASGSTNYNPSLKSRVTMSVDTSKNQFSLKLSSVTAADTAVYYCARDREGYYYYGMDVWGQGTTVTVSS VL: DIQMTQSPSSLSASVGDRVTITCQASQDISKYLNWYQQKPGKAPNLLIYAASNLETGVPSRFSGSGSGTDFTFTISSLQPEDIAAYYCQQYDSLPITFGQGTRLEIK	7.77
75110_13P21A (antibody, V domains shown, Tested as antibody purified from AlivaMab Mouse hybridoma supernatant (human variable domains, kappa; mouse Fc, captured on anti-mouse IgG Fc sensors); also called ADS75110 purified AMM Ab) VH: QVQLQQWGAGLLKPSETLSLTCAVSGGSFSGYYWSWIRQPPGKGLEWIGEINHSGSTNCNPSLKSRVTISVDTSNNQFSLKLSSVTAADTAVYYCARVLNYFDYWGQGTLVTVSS VL: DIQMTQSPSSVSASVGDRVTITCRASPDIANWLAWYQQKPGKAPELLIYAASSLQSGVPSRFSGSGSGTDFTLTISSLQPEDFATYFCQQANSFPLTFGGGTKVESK	7.12

Next binder, please.
Task: Given the entry 75110_12K21A (antibody, V domains shown, Tested as antibody purified from AlivaMab Mouse hybridoma supernatant (human variable domains, kappa; mouse Fc, captured on anti-mouse IgG Fc sensors); also called ADS75110 purified AMM Ab) VH: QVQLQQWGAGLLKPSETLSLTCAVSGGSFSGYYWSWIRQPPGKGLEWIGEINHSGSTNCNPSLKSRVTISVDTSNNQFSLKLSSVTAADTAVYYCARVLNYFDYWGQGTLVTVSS VL: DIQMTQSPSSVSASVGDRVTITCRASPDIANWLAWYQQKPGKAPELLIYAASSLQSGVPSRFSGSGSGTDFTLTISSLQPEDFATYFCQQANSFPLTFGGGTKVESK , report its measured pKd.
Output: 7.68
